system.tested: RNA-directed RNA polymerase (Hepacivirus hominis, UniProt O39930)
Sequence (O39930 whole entry): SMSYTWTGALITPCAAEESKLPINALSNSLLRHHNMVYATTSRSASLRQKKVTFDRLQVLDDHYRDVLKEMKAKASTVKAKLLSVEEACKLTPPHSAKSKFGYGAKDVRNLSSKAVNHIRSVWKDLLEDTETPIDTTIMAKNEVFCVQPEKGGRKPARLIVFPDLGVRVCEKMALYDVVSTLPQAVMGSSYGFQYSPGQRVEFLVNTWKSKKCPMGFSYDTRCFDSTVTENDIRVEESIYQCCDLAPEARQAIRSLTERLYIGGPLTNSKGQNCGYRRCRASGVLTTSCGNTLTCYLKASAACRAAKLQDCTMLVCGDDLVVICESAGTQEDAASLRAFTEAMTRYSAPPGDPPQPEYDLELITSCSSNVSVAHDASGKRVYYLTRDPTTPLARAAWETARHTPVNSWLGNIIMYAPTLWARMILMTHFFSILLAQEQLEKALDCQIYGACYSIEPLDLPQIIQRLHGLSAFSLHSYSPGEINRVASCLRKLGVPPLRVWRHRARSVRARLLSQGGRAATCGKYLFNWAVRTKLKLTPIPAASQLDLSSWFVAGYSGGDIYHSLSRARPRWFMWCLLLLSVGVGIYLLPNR
test.description: Inhibitory concentration against Hepatitis C virus RNA dependent RNA polymerase Nonstructural protein 5B
The compounds listed here are annotated with their pIC50.
// pIC50: -log10(molar conc.)

Measured on RNA-directed RNA polymerase (Hepacivirus hominis, UniProt O39930), CCCC[C@@]1(C(=O)O)C[C@H](C(=O)O)[C@H](c2ccccc2)N1C(=O)c1ccc(C(F)(F)F)cc1 has a documented pIC50 of 5.48

pIC50 on RNA-directed RNA polymerase (Hepacivirus hominis, UniProt O39930) for CC(C)C[C@@]1(C(=O)O)C[C@H](C(=O)O)[C@H](c2ccccn2)N1C(=O)c1ccc(C(F)(F)F)cc1 is 6.15

###

system.tested: UniProt:O39930
Listed here are compounds together with their documented IC50.

mol.smiles | system.tested | IC50
NCCC[C@@]1(C(=O)O)C[C@H](C(=O)O)[C@H](c2ccccc2)N1C(=O)c1ccc(C(F)(F)F)cc1 | UniProt:O39930 | > 20 µM
O=C(O)[C@H]1C[C@@](Cc2ccc(O)cc2)(C(=O)O)N(C(=O)c2ccc(C(F)(F)F)cc2)[C@H]1c1ccccc1 | UniProt:O39930 | > 20 µM
CC(C)C[C@@]1(C(=O)O)C[C@H](C(=O)O)[C@H](c2cccs2)N1C(=O)c1cccc2ccccc12 | UniProt:O39930 | 0.7 µM
CC(C)C[C@@]1(C(=O)O)C[C@H](C(=O)O)[C@H](c2ccc(Cl)cc2)N1C(=O)c1ccc(C(F)(F)F)cc1 | UniProt:O39930 | 0.9 µM
C[C@@]1(C(=O)O)C[C@H](C(=O)O)[C@H](c2ccccc2)N1C(=O)c1ccc(C(F)(F)F)cc1 | UniProt:O39930 | > 20 µM

Value sought: IC50, system UniProt:O39930, item CC(C)C[C@@]1(C(=O)O)C[C@H](C(=O)O)[C@H](c2cccs2)N1C(=O)c1ccccc1 . Result: 11.4 µM
